meta.source: ChEMBL document CHEMBL3991601

# system: Tyrosine-protein kinase FRK (Homo sapiens, UniProt P42685); note: in the data inactive means no Kd found up to 30 µM
# Sequence (P42685 whole entry): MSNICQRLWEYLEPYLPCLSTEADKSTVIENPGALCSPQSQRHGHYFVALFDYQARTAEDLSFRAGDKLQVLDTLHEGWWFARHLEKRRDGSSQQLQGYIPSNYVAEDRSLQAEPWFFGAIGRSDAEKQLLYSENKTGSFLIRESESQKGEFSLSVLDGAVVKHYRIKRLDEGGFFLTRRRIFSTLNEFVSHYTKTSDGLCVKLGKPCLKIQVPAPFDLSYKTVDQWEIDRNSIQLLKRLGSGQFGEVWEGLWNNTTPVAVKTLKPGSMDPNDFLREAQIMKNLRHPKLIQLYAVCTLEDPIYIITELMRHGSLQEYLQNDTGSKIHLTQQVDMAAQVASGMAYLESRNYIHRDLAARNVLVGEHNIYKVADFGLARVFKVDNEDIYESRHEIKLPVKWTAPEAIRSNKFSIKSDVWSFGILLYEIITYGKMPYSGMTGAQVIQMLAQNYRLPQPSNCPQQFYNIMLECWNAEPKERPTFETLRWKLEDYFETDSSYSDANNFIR
Calls of active or inactive are those of the source.
Pick from YES (active), NO (inactive) when you respond.

Here are 6 molecules together with their reported answers.
>  <molecule>
C=CC(=O)Nc1cc2c(Nc3ccc(F)c(Cl)c3)ncnc2cc1C#CC(C)(C)N1CCN(C)CC1 [AV-412 FREE BASE]

>  <system>
Tyrosine-protein kinase FRK (Homo sapiens, UniProt P42685); note: in the data inactive means no Kd found up to 30 µM

>  <assigned.label>
NO

$$$$
>  <molecule>
Cc1cc(C(=O)NOCCO)c(Nc2ccc(I)cc2F)n(C)c1=O

>  <system>
Tyrosine-protein kinase FRK (Homo sapiens, UniProt P42685); note: in the data inactive means no Kd found up to 30 µM

>  <assigned.label>
NO

$$$$
>  <molecule>
Cc1cc(Nc2ncc(Cl)c(Nc3ccccc3S(=O)(=O)C(C)C)n2)c(OC(C)C)cc1C1CCNCC1

>  <system>
Tyrosine-protein kinase FRK (Homo sapiens, UniProt P42685); note: in the data inactive means no Kd found up to 30 µM

>  <assigned.label>
NO

$$$$
>  <molecule>
Cc1nc(NC(=O)N2CCC[C@H]2C(N)=O)sc1-c1ccnc(C(C)(C)C(F)(F)F)c1

>  <system>
Tyrosine-protein kinase FRK (Homo sapiens, UniProt P42685); note: in the data inactive means no Kd found up to 30 µM

>  <assigned.label>
NO

$$$$
>  <molecule>
COc1ccc(S(=O)(=O)N(C(C)=O)c2ccccc2/C=C/c2cc[n+]([O-])cc2)cc1

>  <system>
Tyrosine-protein kinase FRK (Homo sapiens, UniProt P42685); note: in the data inactive means no Kd found up to 30 µM

>  <assigned.label>
NO

$$$$
>  <molecule>
Cn1cnc2c(F)c(Nc3ccc(Br)cc3F)c(C(=O)NOCCO)cc21

>  <system>
Tyrosine-protein kinase FRK (Homo sapiens, UniProt P42685); note: in the data inactive means no Kd found up to 30 µM

>  <assigned.label>
NO

$$$$

Outcome logged for Cc1nc2cc(-n3ncc(C(=O)c4cc5ccccc5[nH]4)c3N)ccc2[nH]1 in this assay:
NO

What classification did CC(C)(C)c1nc(-c2cccc(NS(=O)(=O)c3c(F)cccc3F)c2F)c(-c2ccnc(N)n2)s1 end up with in this test?
YES

Given Cn1ncc(Cl)c1-c1cc(C(=O)N[C@H](CN)Cc2ccc(F)c(F)c2)oc1Cl , state the outcome it received in this test.
NO
